# Lookup of reported pIC50 keyed by entry
target: Bromodomain-containing protein 3 (Homo sapiens, UniProt Q15059, Y37A); test: Binding affinity to BRD3 6-His-Thr BRD3 (1 to 435) BD2 (unknown origin) harboring BD1 Y37A mutant
Sequence (Q15059 whole entry, looked up, stated change not applied): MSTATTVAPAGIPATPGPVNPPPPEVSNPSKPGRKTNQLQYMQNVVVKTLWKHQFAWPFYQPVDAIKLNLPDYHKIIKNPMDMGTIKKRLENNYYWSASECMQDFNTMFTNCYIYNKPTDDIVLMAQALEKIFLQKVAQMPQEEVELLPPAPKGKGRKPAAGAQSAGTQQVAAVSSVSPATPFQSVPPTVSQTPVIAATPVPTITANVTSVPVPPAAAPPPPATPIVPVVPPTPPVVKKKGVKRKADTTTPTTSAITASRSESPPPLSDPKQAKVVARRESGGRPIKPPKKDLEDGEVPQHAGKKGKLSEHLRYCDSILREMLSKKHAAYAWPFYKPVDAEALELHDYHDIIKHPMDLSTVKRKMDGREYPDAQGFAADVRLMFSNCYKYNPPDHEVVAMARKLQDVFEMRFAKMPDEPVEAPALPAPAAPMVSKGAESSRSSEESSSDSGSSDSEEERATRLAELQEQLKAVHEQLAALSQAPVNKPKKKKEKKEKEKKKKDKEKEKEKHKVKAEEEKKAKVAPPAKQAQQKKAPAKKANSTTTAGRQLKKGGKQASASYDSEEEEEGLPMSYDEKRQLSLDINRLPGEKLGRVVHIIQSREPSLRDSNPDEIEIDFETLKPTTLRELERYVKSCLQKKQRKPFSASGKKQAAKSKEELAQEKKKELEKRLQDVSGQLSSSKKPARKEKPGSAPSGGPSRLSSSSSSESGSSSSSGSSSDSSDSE
pIC50: −log10 of the molar value.

STRUCTURE SMILES	pIC50
Cc1cncc(-c2cnc(NC3CCNCC3)c3[nH]c(=O)c(C)cc23)c1	4.70
COc1cncc(-c2cnc(NC3CCNCC3)c3[nH]c(=O)c(C)cc23)c1	4.70

---

molecular target: Bromodomain-containing protein 2 (Homo sapiens, UniProt P25440, Y386A)
Sequence (P25440 whole entry Y386A): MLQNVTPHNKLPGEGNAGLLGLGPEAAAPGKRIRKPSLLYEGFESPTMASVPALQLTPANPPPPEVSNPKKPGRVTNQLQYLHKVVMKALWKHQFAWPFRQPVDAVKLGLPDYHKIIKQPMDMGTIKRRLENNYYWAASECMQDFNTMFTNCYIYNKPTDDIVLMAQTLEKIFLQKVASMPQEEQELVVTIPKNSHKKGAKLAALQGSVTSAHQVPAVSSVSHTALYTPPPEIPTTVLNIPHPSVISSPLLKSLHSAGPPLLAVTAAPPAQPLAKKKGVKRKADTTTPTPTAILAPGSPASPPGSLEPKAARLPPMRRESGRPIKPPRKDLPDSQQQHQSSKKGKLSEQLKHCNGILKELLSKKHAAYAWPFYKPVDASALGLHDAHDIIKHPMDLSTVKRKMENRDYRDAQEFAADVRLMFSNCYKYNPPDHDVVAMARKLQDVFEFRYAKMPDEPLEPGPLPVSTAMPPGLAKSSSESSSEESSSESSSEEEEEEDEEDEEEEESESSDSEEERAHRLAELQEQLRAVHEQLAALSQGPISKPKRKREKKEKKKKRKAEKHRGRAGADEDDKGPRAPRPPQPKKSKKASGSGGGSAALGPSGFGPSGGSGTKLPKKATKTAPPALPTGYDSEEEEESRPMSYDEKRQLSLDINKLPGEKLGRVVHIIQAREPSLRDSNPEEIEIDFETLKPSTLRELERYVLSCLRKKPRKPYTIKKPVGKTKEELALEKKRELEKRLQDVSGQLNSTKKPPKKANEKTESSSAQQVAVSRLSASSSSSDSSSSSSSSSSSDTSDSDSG
VALUE TYPE: IC50 (µM)

STRUCTURE SMILES	ENDPOINT VALUE
COc1cncc(-c2cnc(NC3CCNCC3)c3[nH]c(=O)c(C)cc23)c1	3.98
Cc1cncc(-c2cnc(NC3CCNCC3)c3[nH]c(=O)c(C)cc23)c1	6.31

---

Form: system (Bromodomain-containing protein 4 (Homo sapiens, UniProt O60885, Y390A)), quantity (IC50), values below.

STRUCTURE SMILES	RELATION	IC50 [µM]
Cc1cc2c(-c3ccncc3)cnc(NC3CCNCC3)c2[nH]c1=O	=	3.16
Cc1cc2c(-c3cncc(N)c3)cnc(NC3CCNCC3)c2[nH]c1=O	=	2
Cc1cc2ccccc2[nH]c1=O	=	39.8
CCCNc1cccc2cc(C)c(=O)[nH]c12	>	50.1
COc1cncc(-c2cnc(NC3CCNCC3)c3[nH]c(=O)c(C)cc23)c1	=	1.26
Cc1cc2c(-c3cccc4[nH]ncc34)cnc(NC3CCNCC3)c2[nH]c1=O	=	0.126
Cc1cncc(-c2cnc(NC3CCNCC3)c3[nH]c(=O)c(C)cc23)c1C	=	7.94
Cc1cc2c(-c3cncc(Cl)c3)cnc(NC3CCNCC3)c2[nH]c1=O	=	6.31
COCCCN1CCC(Nc2nccc3cc(C)c(=O)[nH]c23)CC1	=	3.98
Cc1cc2c(-c3cncc(NS(C)(=O)=O)c3)cnc(NC3CCNCC3)c2[nH]c1=O	=	0.794
Cc1cc2cccc(NCCCO)c2[nH]c1=O	=	5.01

---

pIC50: −log10 of the molar value.
Form: system (Bromodomain-containing protein 2 (Homo sapiens, UniProt P25440, Y113A)), quantity (pIC50), values below.
VALUE TYPE: pIC50

STRUCTURE SMILES	SYSTEM NAME	VALUE TYPE	ENDPOINT VALUE
COc1cncc(-c2cnc(NC3CCNCC3)c3[nH]c(=O)c(C)cc23)c1	Bromodomain-containing protein 2 (Homo sapiens, UniProt P25440, Y113A)	pIC50	4.70
Cc1cncc(-c2cnc(NC3CCNCC3)c3[nH]c(=O)c(C)cc23)c1	Bromodomain-containing protein 2 (Homo sapiens, UniProt P25440, Y113A)	pIC50	4.70

---

target: Bromodomain-containing protein 4 (Homo sapiens, UniProt O60885, Y390A)
pIC50: −log10 of the molar value.

COMPOUND	SYSTEM NAME	pIC50
Cc1ncccc1-c1cnc(NC2CCNCC2)c2[nH]c(=O)c(C)cc12	Bromodomain-containing protein 4 (Homo sapiens, UniProt O60885, Y390A)	5.20
Cc1cc2c(-c3cc[nH]n3)cnc(NC3CCNCC3)c2[nH]c1=O	Bromodomain-containing protein 4 (Homo sapiens, UniProt O60885, Y390A)	5.90
Cc1cc2cccc(NCc3ncc[nH]3)c2[nH]c1=O	Bromodomain-containing protein 4 (Homo sapiens, UniProt O60885, Y390A)	4.30
Cc1ccc(-c2cnc(NC3CCNCC3)c3[nH]c(=O)c(C)cc23)cn1	Bromodomain-containing protein 4 (Homo sapiens, UniProt O60885, Y390A)	6.00
Cc1cc2ccnc(NCC(C)(C)CN(C)C)c2[nH]c1=O	Bromodomain-containing protein 4 (Homo sapiens, UniProt O60885, Y390A)	3.80
CC(=O)N1CCc2cc(-c3cnc(NC4CCNCC4)c4[nH]c(=O)c(C)cc34)ccc21	Bromodomain-containing protein 4 (Homo sapiens, UniProt O60885, Y390A)	6.00
Cc1cc2cccc(NCCO)c2[nH]c1=O	Bromodomain-containing protein 4 (Homo sapiens, UniProt O60885, Y390A)	4.40
Cc1cc2cccc(NCCCN(C)C)c2[nH]c1=O	Bromodomain-containing protein 4 (Homo sapiens, UniProt O60885, Y390A)	5.00
Cc1cc2ccnc(NCCC3CCCNC3)c2[nH]c1=O (stereo unspecified)	Bromodomain-containing protein 4 (Homo sapiens, UniProt O60885, Y390A)	4.60
Cc1cc2cccc(NCCN(C)C)c2[nH]c1=O	Bromodomain-containing protein 4 (Homo sapiens, UniProt O60885, Y390A)	4.60
COc1ccc(-c2cnc(NC3CCNCC3)c3[nH]c(=O)c(C)cc23)cn1	Bromodomain-containing protein 4 (Homo sapiens, UniProt O60885, Y390A)	5.90
